The measurements presented in this section are drawn from a collection of fitness landscapes (doi:10.1126/science.1257360).

# maps each entry to its enrichment ratio
B1: PhoQ; a variant is named by its letters at X, in order, P23837 (parent)
chain: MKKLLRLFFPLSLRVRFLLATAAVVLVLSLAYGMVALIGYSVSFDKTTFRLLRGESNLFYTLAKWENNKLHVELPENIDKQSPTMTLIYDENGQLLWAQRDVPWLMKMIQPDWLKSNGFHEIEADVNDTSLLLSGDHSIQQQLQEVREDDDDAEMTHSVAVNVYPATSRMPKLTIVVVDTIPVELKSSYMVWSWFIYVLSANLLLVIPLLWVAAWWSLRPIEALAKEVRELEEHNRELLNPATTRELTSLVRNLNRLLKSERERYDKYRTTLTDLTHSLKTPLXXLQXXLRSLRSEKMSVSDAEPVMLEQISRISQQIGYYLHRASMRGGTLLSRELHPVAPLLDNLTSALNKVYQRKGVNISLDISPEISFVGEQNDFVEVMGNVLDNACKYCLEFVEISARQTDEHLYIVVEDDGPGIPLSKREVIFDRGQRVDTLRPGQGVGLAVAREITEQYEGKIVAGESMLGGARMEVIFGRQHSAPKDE

Variants of: B1
Assay: enrichment ratio after two sorts for PhoP signalling (ratio (wild type AVST 3.29)); higher = more functional
Settings: with PhoP (E. coli)
In all, about 140,000 sequences were measured (“enrichment ratio after two sorts for PhoP signalling”: median about 0, highest 2% from about 11 on). The sample holds the highest values, similar sequences and a random draw of the others, so the mix is not that of the screen.

These recorded examples may help you get a feel for the data.
mutant-id | experimental-result
RNQE | ≤ 0.25
ELYP | ≤ 0.25
RGAS | ≤ 0.25

INPUT: Please list enrichment ratio recorded for the variant TGAS
OUTPUT: 14

INPUT: Please list enrichment ratio recorded for the variant TDAS
OUTPUT: 11.6

INPUT: Please list enrichment ratio recorded for the variant GTFM
OUTPUT: ≤ 0.25

INPUT: Please list enrichment ratio recorded for the variant MKFM
OUTPUT: ≤ 0.25

INPUT: Please list enrichment ratio recorded for the variant NAFM
OUTPUT: ≤ 0.25

INPUT: Please list enrichment ratio recorded for the variant ESKA
OUTPUT: ≤ 0.25

INPUT: Please list enrichment ratio recorded for the variant AIQE
OUTPUT: ≤ 0.25

INPUT: Please list enrichment ratio recorded for the variant LAQE
OUTPUT: ≤ 0.25

INPUT: Please list enrichment ratio recorded for the variant TERG
OUTPUT: ≤ 0.25

INPUT: Please list enrichment ratio recorded for the variant NGAS
OUTPUT: 0.365

INPUT: Please list enrichment ratio recorded for the variant TKQE
OUTPUT: 16.5
